- measurement-target: HCV NS3/4A protease genotype 3a (Hepatitis C virus genotype 3a)
- assay: HCV NS3/4A protease time-resolved fluorescence (TRF) assay, Ki against genotype 3a
reported-endpoint: IC50 (nM)
Numbers only, in nM.

COc1ccc2nc(C(F)(F)F)c3c(c2c1)[C@](C)(O)C[C@]1(C[C@H]2C(=O)N[C@]4(C(=O)NS(=O)(=O)C5(C)CC5)C[C@H]4/C=C\CCCCC[C@H](NC(=O)OC4(C)CCC4)C(=O)N2C1)O3 [Example 507]: 4.45

IC50 reading for CC[C@H](C)OC(=O)N[C@H]1CCCCC/C=C\[C@@H]2C[C@@]2(C(=O)NS(=O)(=O)C2(C)CC2)NC(=O)[C@@H]2C[C@]3(CCc4c(c(C(F)(F)F)nc5ccc(OC)cc45)O3)CN2C1=O [Example 460] : 1.78

---

- Test system: HCV genotype 1b replicon
- assay: HCV replicon assay, genotype 1b replicon EC50
- Assay type: cell-based, Hepatitis C virus
- cond: Hepatitis C virus, HCV replicon, genotype 1b; read-out: EC50 [gt-1b]
Field: EC50. Provide a value for each of the compounds that follow.
Answer shape: numeric part, then the unit.

CC(C)(OC(=O)N[C@H]1CCCCC/C=C\[C@@H]2C[C@@]2(C(=O)NS(=O)(=O)C2(C)CC2)NC(=O)[C@@H]2C[C@]3(CCc4c(c(C(F)(F)F)nc5ccc(Cl)cc45)O3)CN2C1=O)C(F)(F)F: 20.1 nM
CC(C)OC(=O)N[C@H]1CCCCC/C=C\[C@@H]2C[C@@]2(C(=O)NS(=O)(=O)C2(C)CC2)NC(=O)[C@@H]2C[C@]3(CCc4c(c(C(F)(F)F)nc5ccc(Cl)cc45)O3)CN2C1=O: 6.79 nM
COCCOc1ccc2nc(C)c3c(c2c1)CC[C@]1(C[C@H]2C(=O)N[C@]4(C(=O)NS(=O)(=O)C5(C)CC5)C[C@H]4/C=C\CCCCC[C@H](NC(=O)OC(C)(C)C(F)(F)F)C(=O)N2C1)O3: 5.04 nM
CCc1nc2ccc(OCCCN3CCOCC3)cc2c2c1O[C@]1(CC2)C[C@H]2C(=O)N[C@]3(C(=O)NS(=O)(=O)C4(C)CC4)C[C@H]3/C=C\CCCCC[C@H](NC(=O)OC(C)(C)C)C(=O)N2C1: 0.668 nM

Attention now turns to another entry.
EC50 reading for "Cc1nc2ccccc2c2c1O[C@]1(CC2)C[C@H]2C(=O)N[C@]3(C(=O)NS(=O)(=O)C4(C)CC4)C[C@H]3/C=C\CCCCC[C@H](Nc3ncccn3)C(=O)N2C1" : 205 nM

---

- measurement-target: HCV NS3/4A protease genotype 1b (Hepatitis C virus genotype 1b)
- assay: HCV NS3/4A protease time-resolved fluorescence (TRF) assay, Ki against genotype 1b
- Assay type: biochemical
- cond: IC50 [gt-1b] (nM), NS3/4A genotype 1b, enzyme 0.2 nM
- Description: Measuring NS3/4A Inhibitory Activity (Ki) Against Genotype 1b, Against A156T Mutants and Against Genotype 3a One assay for measuring inhibitory activity is HCV NS3 protease time-resolved fluorescence (TRF) assay as described below and in Mao et al., Anal. Biochem. 373:1-8, 2008 and International Patent Application Publication WO 2006/102087. […]
reported-endpoint: IC50 (nM)
Numbers only, in nM.

Consider the worked cases shown below.
Cc1nc2ccccc2c2c1O[C@@]1(CC2)C[C@H]2C(=O)N[C@]3(C(=O)NS(=O)(=O)C4(C)CC4)C[C@H]3/C=C\CCCCC[C@H](NC(=O)OC(C)(C)C)C(=O)N2C1: 0.022
Cc1nc2ccccc2c2c1O[C@]1(CC2)C[C@H]2C(=O)N[C@]3(C(=O)NS(=O)(=O)C4(C)CC4)C[C@H]3/C=C\CCCCC[C@H](NC(=O)OC3C[C@H]4C=C[C@@H]3C4)C(=O)N2C1 (stereo partly drawn): 0.018

Attention now turns to another entry.
IC50 reading for "CCc1nc2ccc(OC)cc2c2c1O[C@]1(CC2)C[C@H]2C(=O)N[C@]3(C(=O)NS(=O)(=O)C4(C)CC4)C[C@H]3/C=C\CCCCC[C@H](NC(=O)OCC(C)(C)C)C(=O)N2C1" : 0.009

---

- System: HCV genotype 1b replicon
- assay: HCV replicon assay, genotype 1b replicon EC50
- Assay type: cell-based, Hepatitis C virus
- cond: Hepatitis C virus, HCV replicon, genotype 1b; read-out: EC50 [gt-1b]
reported-endpoint: EC50 (nM)
One number for each entry, in nM.

Consider the worked cases shown below.
COc1ccc2nc(C(F)(F)F)c3c(c2c1)[C@H](F)C[C@]1(C[C@H]2C(=O)N[C@]4(C(=O)NS(=O)(=O)C5(C)CC5)C[C@H]4/C=C\CCCCC[C@H](NC(=O)OC(C)(C)C)C(=O)N2C1)O3 [Example 427]: 1.46
CCc1nc2ccc(OC)cc2c2c1O[C@]1(CC2)C[C@H]2C(=O)N[C@]3(C(=O)NS(=O)(=O)C4(C)CC4)C[C@H]3/C=C\CCCCC[C@H](NC(=O)c3ccc(C)s3)C(=O)N2C1 [Example 466]: 1.62

EC50 reading for Cc1ccc2nc(C(F)(F)F)c3c(c2c1)CC[C@]1(C[C@H]2C(=O)N[C@]4(C(=O)NS(=O)(=O)C5(C)CC5)C[C@H]4/C=C\CCCCC[C@H](NC(=O)OCCN4CCCCC4)C(=O)N2C1)O3 [Example 417] : 45.3

---

- measurement-target: HCV NS3/4A protease genotype 1b (Hepatitis C virus genotype 1b, UniProt P26663)
- assay: HCV NS3/4A protease time-resolved fluorescence (TRF) assay, Ki against genotype 1b
- Type: biochemical
- cond: IC50 [gt-1b] (nM), NS3/4A genotype 1b, enzyme 0.2 nM
Field: IC50. Provide a value for each of the compounds that follow.
One number for each entry, in nM.

// each compound listed below needs its IC50
1. Cc1nc2ccc(OC(F)(F)F)cc2c2c1O[C@]1(CC2)C[C@H]2C(=O)N[C@]3(C(=O)NS(=O)(=O)C4(C)CC4)C[C@H]3/C=C\CCCCC[C@H](NC(=O)OC(C)(C)C(F)(F)F)C(=O)N2C1 [Example 298]
2. Cc1nc2c(C(F)(F)F)cccc2c2c1O[C@]1(CC2)C[C@H]2C(=O)N[C@]3(C(=O)NS(=O)(=O)C4(C)CC4)C[C@H]3/C=C\CCCCC[C@H](NC(=O)OC(C)C)C(=O)N2C1 [Example 114]
3. COc1ccc2nc(C)c3c(c2c1)CC[C@]1(C[C@H]2C(=O)N[C@]4(C(=O)NS(=O)(=O)C5(C)CC5)C[C@H]4CCCCCCC[C@H](NC(=O)OC(C)(C)C(F)(F)F)C(=O)N2C1)O3 [Example 35]
4. Cc1nc2ccccc2c2c1O[C@]1(CC2)C[C@H]2C(=O)N[C@]3(C(=O)NS(=O)(=O)C4(C)CC4)C[C@H]3/C=C\CCCCC[C@H](NC(=O)OC(C)C(F)(F)F)C(=O)N2C1 (stereo partly drawn) [Example 241]

Response:
1. 0.017
2. 0.308
3. 0.016
4. 0.012

---

- measurement-target: HCV NS3/4A protease genotype 1b (Hepatitis C virus genotype 1b, UniProt P26663)
- assay: HCV NS3/4A protease time-resolved fluorescence (TRF) assay, Ki against genotype 1b
- Format: biochemical
- cond: IC50 [gt-1b], NS3/4A protease TRF assay, genotype 1b enzyme 0.2 nM
# label = bin(measured IC50), where bins are small value (below 0.01 nM), mid value (0.01 nM to below 0.02 nM), large value (0.02 nM or more)

COc1ccnc(N[C@H]2CCCCC/C=C\[C@@H]3C[C@@]3(C(=O)NS(=O)(=O)C3(C)CC3)NC(=O)[C@@H]3C[C@]4(CCc5c(c(C)nc6ccc(OC)cc56)O4)CN3C2=O)c1 [Example 432]: large value
COCC1(S(=O)(=O)NC(=O)[C@@]23C[C@H]2/C=C\CCCCC[C@H](NC(=O)OCC(C)C)C(=O)N2C[C@@]4(CCc5c(c(C(F)(F)F)nc6ccc(OC)cc56)O4)C[C@H]2C(=O)N3)CC1 [Example 473]: large value
Cc1ccc2nc(C(F)(F)F)c3c(c2c1)CC[C@]1(C[C@H]2C(=O)N[C@]4(C(=O)NS(=O)(=O)C5(C)CC5)C[C@H]4/C=C\CCCCC[C@H](NC(=O)OC(C)(C)C)C(=O)N2C1)O3 [Example 389]: mid value

Prompt: In plain terms, what class is CC(C)COC(=O)N[C@H]1CCCCC/C=C\[C@@H]2C[C@@]2(C(=O)NS(=O)(=O)C2(C)CC2)NC(=O)[C@@H]2C[C@]3(CCc4c(c(C(F)(F)F)nc5ccc(OCCCN6CCOCC6)cc45)O3)CN2C1=O [Example 511] ?
Response: small value

---

- measurement-target: HCV NS3/4A protease genotype 1b (Hepatitis C virus genotype 1b)
- assay: HCV NS3/4A protease time-resolved fluorescence (TRF) assay, Ki against genotype 1b
- Assay type: biochemical
- cond: IC50 [gt-1b] (nM), NS3/4A genotype 1b, enzyme 0.2 nM; K+ salt
Field: IC50. Provide a value for each of the compounds that follow.
Answers are plain numbers, in nM.

Consider the worked cases shown below.
COc1ccc2nc(C(F)F)c3c(c2c1)CC[C@]1(C[C@H]2C(=O)N[C@]4(C(=O)NS(=O)(=O)C5(C)CC5)C[C@H]4/C=C\CCCCC[C@H](NC(=O)OC(C)(C)C)C(=O)N2C1)O3: 0.013
Cc1nc2ccc(Cl)cc2c2c1O[C@]1(CC2)C[C@H]2C(=O)N[C@]3(C(=O)NS(=O)(=O)C4(C)CC4)C[C@H]3/C=C\CCCCC[C@H](NC(=O)OC3CCC3)C(=O)N2C1: 0.005
Cc1nc2cc(Cl)ccc2c2c1O[C@]1(CC2)C[C@H]2C(=O)N[C@]3(C(=O)NS(=O)(=O)C4(C)CC4)C[C@H]3/C=C\CCCCC[C@H](NC(=O)OCC(C)(C)C)C(=O)N2C1: 0.027
COc1ccc2nc(C(C)C)c3c(c2c1)CC[C@]1(C[C@H]2C(=O)N[C@]4(C(=O)NS(=O)(=O)C5(C)CC5)C[C@H]4/C=C\CCCCC[C@H](NC(=O)OC(C)(C)CCS(C)(=O)=O)C(=O)N2C1)O3: 0.012
Cc1nc2ccc(Cl)cc2c2c1O[C@]1(CC2)C[C@H]2C(=O)N[C@]3(C(=O)NS(=O)(=O)C4(C)CC4)C[C@H]3/C=C\CCCCC[C@H](NC(=O)OC(C)C)C(=O)N2C1: 0.008

// each compound listed below needs its IC50
1. Cc1nc2cc(F)ccc2c2c1O[C@]1(CC2)C[C@H]2C(=O)N[C@]3(C(=O)NS(=O)(=O)C4(C)CC4)C[C@H]3/C=C\CCCCC[C@H](NC(=O)OC(C)(C)C(F)(F)F)C(=O)N2C1
2. Cc1nc2ccc(Cl)cc2c2c1O[C@]1(CC2)C[C@H]2C(=O)N[C@]3(C(=O)NS(=O)(=O)C4(C)CC4)C[C@H]3/C=C\CCCCC[C@H](NC(=O)OC3(C)CC3)C(=O)N2C1
3. Cc1nc2cc(F)c(F)cc2c2c1O[C@]1(CC2)C[C@H]2C(=O)N[C@]3(C(=O)NS(=O)(=O)C4(C)CC4)C[C@H]3/C=C\CCCCC[C@H](NC(=O)OCC(C)C)C(=O)N2C1

Response:
0.348
0.004
0.007

// each compound listed below needs its IC50
1. COc1ccc2nc(C(C)C)c3c(c2c1)[C@H](F)C[C@]1(C[C@H]2C(=O)N[C@]4(C(=O)NS(=O)(=O)C5(C)CC5)C[C@H]4/C=C\CCCCC[C@H](NC(=O)OC(C)(C)C(F)(F)F)C(=O)N2C1)O3
2. Cc1nc2ccc(OC(F)(F)F)cc2c2c1O[C@]1(CC2)C[C@H]2C(=O)N[C@]3(C(=O)NS(=O)(=O)C4(C)CC4)C[C@H]3/C=C\CCCCC[C@H](NC(=O)OC(C)(C)CCS(C)(=O)=O)C(=O)N2C1

Response:
[0.042, 0.021]
